Tested on: velvetleaf (Abutilon theophrasti)
MEASUREMENT_PROTOCOL: Test A pre-/postemergence: velvetleaf
Format: in vivo
ASSAY_SETUP: Preemergence, 500 g ai/ha; 0 to 100 scale (0 no effect, 100 complete control)
OUTCOME_MEASURE: Plant response rating, Velvetleaf

CHEMICAL_SMILES	VAL
Cc1nn(-c2ccc(F)cc2)nc1Oc1cc(C(F)(F)F)ccn1	0
CC(C)(C)c1nn(-c2ccc(F)cc2)nc1C(=O)c1ccnc(C(F)(F)F)c1	0
CCCc1nn(-c2ccc(F)cc2)nc1Cc1cccc(C(F)(F)F)c1	50
Cc1nn(-c2ccc(F)cc2)nc1Cn1cnc(C(F)(F)F)c1	20
CCc1nn(-c2ccc(F)cc2)nc1Cc1cccc(C(F)(F)F)c1	0
CCc1nn(-c2cccc(C(F)(F)F)c2)nc1Cc1cccc(C(F)(F)F)c1	20
CCc1nn(-c2ccc(C(F)(F)F)cc2)nc1Cn1cc(C(F)(F)F)nc1Cl	60
